# System: Enterococcus faecalis
# procedure.text: Antibacterial activity against vancomycin-susceptible Enterococcus faecalis SR1004
# Assay type: functional
Reported MIC by item:
Please respond with the number in µg/mL and leave the unit unwritten.

Below: 5 compounds and their reported MIC.
CN[C@H](CC(C)C)C(=O)N[C@H]1C(=O)N[C@@H](CC(N)=O)C(=O)N[C@H]2C(=O)N[C@H]3C(=O)N[C@H](C(=O)N[C@H](C(=O)O)c4cc(O)cc(O)c4-c4cc3ccc4O)[C@H](O)c3ccc(c(/C=C/c4ccc(-c5ccccc5)cc4)c3)Oc3cc2cc(c3O[C@@H]2O[C@H](CO)[C@@H](O)[C@H](O)[C@H]2O[C@H]2C[C@](C)(N)[C@H](O)[C@H](C)O2)Oc2ccc(cc2Cl)[C@H]1O	0.25
CN[C@H](CC(C)C)C(=O)N[C@H]1C(=O)N[C@@H](CC(N)=O)C(=O)N[C@H]2C(=O)N[C@H]3C(=O)N[C@H](C(=O)N[C@H](C(=O)O)c4cc(O)cc(O)c4-c4cc3ccc4O)[C@H](O)c3ccc(c(-c4ccccc4OC)c3)Oc3cc2cc(c3O[C@@H]2O[C@H](CO)[C@@H](O)[C@H](O)[C@H]2O[C@H]2C[C@](C)(N)[C@H](O)[C@H](C)O2)Oc2ccc(cc2Cl)[C@H]1O	8
CN[C@H](CC(C)C)C(=O)N[C@H]1C(=O)N[C@@H](CC(N)=O)C(=O)N[C@H]2C(=O)N[C@H]3C(=O)N[C@H](C(=O)N[C@H](C(=O)O)c4cc(O)cc(O)c4-c4cc3ccc4O)[C@H](O)c3ccc(c(/C=C/CCCc4ccccc4)c3)Oc3cc2cc(c3O[C@@H]2O[C@H](CO)[C@@H](O)[C@H](O)[C@H]2O[C@H]2C[C@](C)(N)[C@H](O)[C@H](C)O2)Oc2ccc(cc2Cl)[C@H]1O	1
CCCCCC/C=C/c1cc2ccc1Oc1cc3cc(c1O[C@@H]1O[C@H](CO)[C@@H](O)[C@H](O)[C@H]1O[C@H]1C[C@](C)(N)[C@H](O)[C@H](C)O1)Oc1ccc(cc1/C=C/CCCCCC)[C@@H](O)[C@@H](NC(=O)[C@@H](CC(C)C)NC)C(=O)N[C@@H](CC(N)=O)C(=O)N[C@H]3C(=O)N[C@H]1C(=O)N[C@H](C(=O)N[C@H](C(=O)O)c3cc(O)cc(O)c3-c3cc1ccc3O)[C@@H]2O	32
CN[C@H](CC(C)C)C(=O)N[C@H]1C(=O)N[C@@H](CC(N)=O)C(=O)N[C@H]2C(=O)N[C@H]3C(=O)N[C@H](C(=O)N[C@H](C(=O)O)c4cc(O)cc(O)c4-c4cc3ccc4O)[C@H](O)c3ccc(c(/C=C/c4ccc(OC)cc4)c3)Oc3cc2cc(c3O[C@@H]2O[C@H](CO)[C@@H](O)[C@H](O)[C@H]2O[C@H]2C[C@](C)(N)[C@H](O)[C@H](C)O2)Oc2ccc(cc2Cl)[C@H]1O	1

API: the following record is the query input.
-- ask What measured MIC is associated with CN[C@H](CC(C)C)C(=O)N[C@H]1C(=O)N[C@@H](CC(N)=O)C(=O)N[C@H]2C(=O)N[C@H]3C(=O)N[C@H](C(=O)N[C@H](C(=O)O)c4cc(O)cc(O)c4-c4cc3ccc4O)[C@H](O)c3ccc(c(-c4ccccc4)c3)Oc3cc2cc(c3O[C@@H]2O[C@H](CO)[C@@H](O)[C@H](O)[C@H]2O[C@H]2C[C@](C)(N)[C@H](O)[C@H](C)O2)Oc2ccc(cc2Cl)[C@H]1O on Enterococcus faecalis?
-- reply 4

Data provenance is ChEMBL document CHEMBL1155426.
